molecular target: Cytochrome P450 3A4 (Homo sapiens, UniProt P08684); experiment: Inhibition of CYP3A4 (unknown origin) using testosterone as substrate; type: ADME
Sequence (P08684 whole entry): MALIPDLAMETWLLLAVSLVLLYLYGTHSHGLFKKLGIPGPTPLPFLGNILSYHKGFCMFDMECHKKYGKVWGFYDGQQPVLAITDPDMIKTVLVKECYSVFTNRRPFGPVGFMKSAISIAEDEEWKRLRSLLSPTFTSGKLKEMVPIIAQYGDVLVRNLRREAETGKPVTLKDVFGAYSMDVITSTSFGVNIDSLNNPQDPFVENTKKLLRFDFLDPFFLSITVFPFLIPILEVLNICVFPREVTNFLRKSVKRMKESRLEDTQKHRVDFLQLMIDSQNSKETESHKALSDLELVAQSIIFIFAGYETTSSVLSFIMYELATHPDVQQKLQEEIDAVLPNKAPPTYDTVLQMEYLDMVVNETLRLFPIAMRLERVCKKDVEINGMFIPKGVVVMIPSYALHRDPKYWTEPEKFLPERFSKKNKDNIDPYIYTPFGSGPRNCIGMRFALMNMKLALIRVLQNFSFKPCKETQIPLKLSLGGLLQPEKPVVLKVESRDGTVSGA
pIC50: −log10 of the molar value.
measured.attribute: pIC50

Task item: Specify the recorded pIC50 for CC(=O)N1CC2(CC(Nc3cc4c(cn3)C3(CC3)CN(C[C@H](O)CN3CCc5ccccc5C3)C4=O)C2)C1 , system: Cytochrome P450 3A4 (Homo sapiens, UniProt P08684).
Reply: < 4.30

----------
assay: Half-life in Sprague-Dawley rat at 10 mg/kg, po by LC-MS/MS analysis; format: ADME, organism-based; conditions: Sprague-Dawley, in vivo
measured.attribute: half-life (min)
Provide the reading as a plain figure in min.

Past entries and their recorded results:
- smiles.code: "CC(=O)N1CCC(Nc2ccc3c(c2)C(=O)N(C[C@H](O)CN2CCc4ccccc4C2)CC32CC2)CC1"
  value: 54
- smiles.code: "CC(=O)N1CCC(Nc2cc3c(cn2)C2(CC2)CN(C[C@H](O)CN2CCc4ccccc4C2)C3=O)CC1"
  value: 24
- smiles.code: "CC(=O)N1CCC(Nc2cc(C(=O)NC[C@H](O)CN3CCc4ccccc4C3)ncn2)CC1"
  value: 36
- smiles.code: "CC(=O)N1CCC(Nc2ccc3c(c2)C(=O)N(C[C@H](O)CN2CCc4ccccc4C2)CC32CCC2)CC1"
  value: 210

Task item: State, in one line, measured half-life of CC(=O)N1CC2(CC(Nc3cc4c(cn3)C3(CC3)CN(C[C@H](O)CN3CCc5ccccc5C3)C4=O)C2)C1
Reply: 132

----------
experiment: Protein binding in dog plasma; type: ADME, cell-free, Canis lupus familiaris; details: read-out: PPB (converted)
measured.attribute: fraction unbound
Respond with the number and no other words.

Task item: State, in one line, measured fraction unbound of CC(=O)N1CC2(CC(Nc3cc4c(cn3)C3(CC3)CN(C[C@H](O)CN3CCc5ccccc5C3)C4=O)C2)C1
Reply: 0.0204

----------
test: MRT (0 to t) in Sprague-Dawley rat at 2 mg/kg, iv by LC-MS/MS analysis; format: ADME, organism-based; conditions: in vivo
// returns n unless MRT last is strictly below 30 min, in which case y

Task item: Given the entry CC(=O)N1CCC(Nc2cc(C(=O)NC[C@H](O)CN3CCc4ccccc4C3)ncn2)CC1 [PEMRAMETOSTAT] , would its reported MRT last be below 30 min?
Reply: y

Task item: Given the entry CC(=O)N1CCC(Nc2ccc3c(c2)C(=O)N(C[C@H](O)CN2CCc4ccccc4C2)CC32CCCC2)CC1 , would its reported MRT last be below 30 min?
Reply: n

Task item: Given the entry CC(=O)N1CCC(Nc2cc3c(cn2)C2(CC2)CN(C[C@H](O)CN2CCc4ccccc4C2)C3=O)CC1 , would its reported MRT last be below 30 min?
Reply: n

Task item: Given the entry CC(=O)N1CCC(Nc2ccc3c(c2)C(=O)N(C[C@H](O)CN2CCc4ccccc4C2)CC32CCC2)CC1 , would its reported MRT last be below 30 min?
Reply: n

Task item: Given the entry CC(=O)N1CCC(Nc2ccc3c(c2)C(=O)N(C[C@H](O)CN2CCc4ccccc4C2)CC32CC2)CC1 , would its reported MRT last be below 30 min?
Reply: y

----------
assay: Metabolic stability in monkey liver microsomes assessed as half-life at 1 uM measured upto 240 mins; type: ADME, Macaca mulatta, Microsome; conditions: rhesus monkey
measured.attribute: half-life at 1 µM
In your response, put the unit directly after the numeric value.

Task item: State, in one line, measured half-life at 1 µM of CC(=O)N1CC2(CC(Nc3cc4c(cn3)C3(CC3)CN(C[C@H](O)CN3CCc5ccccc5C3)C4=O)C2)C1
Reply: 18.2 min
